Molecular target: FXIa (Homo sapiens, UniProt P03951)
Construct: factor XIa (FXIa); purchased Haematologic Technologies
Sequence (P03951 388-625 limits assumed): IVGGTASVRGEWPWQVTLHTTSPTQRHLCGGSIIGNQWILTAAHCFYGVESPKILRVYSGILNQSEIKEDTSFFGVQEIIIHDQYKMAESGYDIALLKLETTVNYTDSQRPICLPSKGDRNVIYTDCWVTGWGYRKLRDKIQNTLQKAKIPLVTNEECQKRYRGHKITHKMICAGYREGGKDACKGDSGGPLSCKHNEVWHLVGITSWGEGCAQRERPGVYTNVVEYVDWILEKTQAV
Sequence (P03951 19-387 limits assumed): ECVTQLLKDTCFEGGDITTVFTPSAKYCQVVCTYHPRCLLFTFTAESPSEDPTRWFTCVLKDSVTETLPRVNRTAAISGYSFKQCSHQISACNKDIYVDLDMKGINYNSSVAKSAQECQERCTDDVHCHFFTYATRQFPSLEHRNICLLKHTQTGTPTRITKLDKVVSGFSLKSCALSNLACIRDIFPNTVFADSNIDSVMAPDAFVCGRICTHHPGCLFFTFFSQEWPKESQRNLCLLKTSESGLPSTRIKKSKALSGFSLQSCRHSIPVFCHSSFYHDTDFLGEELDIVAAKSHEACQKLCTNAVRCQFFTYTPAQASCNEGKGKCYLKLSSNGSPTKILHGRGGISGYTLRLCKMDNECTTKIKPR
Experiment: Selectivity profile and Ki, amidolytic activity of FXIa
Format: biochemical
Details: in the presence of heparin; read-out: Ki for FXIa inhibition
measuredParameter: Ki (nM)
One number for each entry, in nM.

Entry DrKIn-I (CGGNDNNFETRKKCRQTCGAPRKGRPT) has what Ki?
1.33

----------
Molecular target: human activated protein C (Homo sapiens, UniProt P04070)
Construct: purchased Haematologic Technologies
Sequence (P04070 212-450 limits assumed): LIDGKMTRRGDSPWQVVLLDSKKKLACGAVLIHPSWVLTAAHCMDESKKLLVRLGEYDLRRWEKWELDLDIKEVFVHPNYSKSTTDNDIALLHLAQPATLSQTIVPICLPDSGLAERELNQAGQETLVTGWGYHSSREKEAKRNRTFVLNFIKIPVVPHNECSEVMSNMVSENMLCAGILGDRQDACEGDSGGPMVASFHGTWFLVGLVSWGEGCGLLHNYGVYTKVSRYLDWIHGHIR
Sequence (P04070 43-197 limits assumed): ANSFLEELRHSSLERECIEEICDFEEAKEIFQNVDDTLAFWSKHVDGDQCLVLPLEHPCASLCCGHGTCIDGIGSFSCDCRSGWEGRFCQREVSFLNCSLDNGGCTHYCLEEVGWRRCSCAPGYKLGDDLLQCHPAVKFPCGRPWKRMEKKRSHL
Experiment: Inhibition of APC amidolytic activity (Spectrozyme PCa chromogenic substrate)
Type: biochemical
Settings: in the presence of 0.1 U/ml heparin, APC 10 nM
Method: B: Dose-response curves of APC (10 nM) inhibition by DrKIn-I in the absence (◯) and presence (●) of 0.1 U/ml heparin. C: To determine the minimum concentration of heparin required for the potentiation APC inhibition, the activity of APC (20 nM) was measured after the addition of DrKIn-I (20 nM) and varying concentrations of heparin (0-1000 mU/ml). […]
measuredParameter: pIC50
Answers are plain numbers, as −log10 of the molar value.

Can you look up the measured pIC50 of DrKIn-I (CGGNDNNFETRKKCRQTCGAPRKGRPT) for me?
8.46
